Assay: Simulated in vitro nasal diffusion/release (vertical diffusion cell)
Details: pH 6.4
Structures can show the parent of a compound that is named as a salt.
Recorded endpoint: recovery at 30 min

{"columns": ["Compound", "Recorded endpoint", "Result"],
 "data": [
  ["CN[C@]1(c2ccccc2Cl)CCCCC1=O [Esketamine HCl powder, esketamine hydrochloride]", "recovery at 30 min", "75.9%"]
]}

* * *

Experiment: Simulated in vitro nasal diffusion/release (vertical diffusion cell)
Conditions: pH 6.4
Counter-ions that a name gives are not always drawn.

{"columns": ["Molecule", "recovery at 10 min (%)"],
 "data": [
  ["CN[C@]1(c2ccccc2Cl)CCCCC1=O [Esketamine HCl powder, esketamine hydrochloride]", 45.1]
]}

FYI, the data here is from patent US11992468B2.
